biological target: FLT3 kinase (Fms-like tyrosine kinase 3) (Homo sapiens, UniProt P36888); assay: FLT3 Kinase Assay Kit, ADP production, luminescence, dose response
Sequence (P36888 27-993): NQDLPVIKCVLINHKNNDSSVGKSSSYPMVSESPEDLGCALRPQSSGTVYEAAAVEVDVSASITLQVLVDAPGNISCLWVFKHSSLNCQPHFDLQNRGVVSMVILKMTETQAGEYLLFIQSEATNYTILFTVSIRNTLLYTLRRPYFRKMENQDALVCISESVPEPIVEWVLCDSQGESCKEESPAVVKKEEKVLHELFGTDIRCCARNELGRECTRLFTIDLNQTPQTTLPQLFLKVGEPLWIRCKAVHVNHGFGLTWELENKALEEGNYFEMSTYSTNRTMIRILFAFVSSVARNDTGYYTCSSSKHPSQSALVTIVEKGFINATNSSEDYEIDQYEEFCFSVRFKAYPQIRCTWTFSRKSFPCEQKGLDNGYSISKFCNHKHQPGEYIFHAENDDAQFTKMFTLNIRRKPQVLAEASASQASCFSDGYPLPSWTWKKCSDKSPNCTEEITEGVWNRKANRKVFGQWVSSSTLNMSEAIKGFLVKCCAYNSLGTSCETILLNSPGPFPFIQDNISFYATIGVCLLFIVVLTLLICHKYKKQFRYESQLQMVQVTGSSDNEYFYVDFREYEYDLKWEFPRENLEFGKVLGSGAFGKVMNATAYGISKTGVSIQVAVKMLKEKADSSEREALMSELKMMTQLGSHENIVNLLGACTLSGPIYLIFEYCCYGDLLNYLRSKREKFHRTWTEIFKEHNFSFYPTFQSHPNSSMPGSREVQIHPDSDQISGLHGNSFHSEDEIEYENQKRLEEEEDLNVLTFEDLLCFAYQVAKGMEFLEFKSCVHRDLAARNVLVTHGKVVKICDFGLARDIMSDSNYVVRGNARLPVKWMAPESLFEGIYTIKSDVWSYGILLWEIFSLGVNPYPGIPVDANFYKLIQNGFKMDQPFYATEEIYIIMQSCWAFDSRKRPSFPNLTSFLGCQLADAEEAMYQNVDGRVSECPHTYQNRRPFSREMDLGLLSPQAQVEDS
Let's look at some compounds and their measured IC50.
PARAMETER: IC50

CC1=CC(=O)N(Nc2ncnc3sc4c(c23)CCCC4)C1=O	40.5 µM
CC(C)(C)c1cc(Nc2ncnc3sc4c(c23)CCCC4)on1	39.6 µM
O=C(CCl)NNc1ncnc2sc3c(c12)CCCC3	32.4 µM
CCOC(=O)c1c(NC(=O)CCl)sc2c1CCCC2	40 µM
